Where these numbers come from: the supplement of paper PMC10567573

B1: RHOBTB2 (parent)
chain: NQEITKAFHVRRTNRVKECLAKGT

variants of: B1; assay: protein stability index of a GFP-peptide fusion (GPS, HEK-293T) (PSI 1-6); higher = more stable; settings: c terminus: a fixed tail appended;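 also: lentivirally expressed fusions sorted by FACS into six bins by GFP to DsRed ratio, PSI derived from sequencing read proportions per bin multiplied by bin number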
Below, each entry is listed with its recorded protein stability index.
Please respond with just the number, no unit label.

Before answering, review these 5 worked examples.
itemSequence	measValue
NQEITKACHVRRTNRVKECLAKGT [F8C]	4.96
NQEITKAFHVRRTNRVKECYAKGT [L20Y]	2.58
NQEMTKAFHVRRTNRVKECLAKGT [I4M]	4.25
NQEITKAFHVRRTNKVKECLAKGT [R15K]	3.29
NQEITKAFHVRRTNRVLECLAKGT [K17L]	3.12

*Q* Please report protein stability index for the following variant: NQEITKAFHVRRTNRVKECLAKGR [T24R]
*A* 2.7

*Q* For the variant NQEITKAFHVRRTNRVKHCLAKGT [E18H] , give its measured protein stability index value.
*A* 2.58

*Q* Quick one: give measured protein stability index for NQEITKAFHVRITNRVKECLAKGT [R12I]
*A* 2.37

*Q* Supply protein stability index value. Item: NQEITKAFHVRRTNRVKEDLAKGT [C19D]
*A* 3.13

*Q* Consider the variant NQEATKAFHVRRTNRVKECLAKGT [I4A] and give its recorded protein stability index.
*A* 4.92

*Q* Read off the recorded protein stability index for NMEITKAFHVRRTNRVKECLAKGT [Q2M]
*A* 3.01
